Test system: L. acidophilus NCFM
Test: RNA-seq transcriptional analysis of L. acidophilus NCFM growing on plant glycosides
Format: cell-based, Lactobacillus acidophilus
Details: LBA1871 Neopullulanase, COG G
parameter_measured: Transcripts per million (rpm)

test_smiles: N#C[C@H](O[C@@H]1O[C@H](CO[C@@H]2O[C@H](CO)[C@@H](O)[C@H](O)[C@H]2O)[C@@H](O)[C@H](O)[C@H]1O)c1ccccc1
test_result: 43.6 rpm
--
test_smiles: OC[C@H]1O[C@@H](O[C@H]2[C@H](O)[C@@H](O)[C@@H](O)O[C@@H]2CO)[C@H](O)[C@@H](O)[C@H]1O
test_result: 4.5 rpm
--
test_smiles: OCc1ccccc1O[C@@H]1O[C@H](CO)[C@@H](O)[C@H](O)[C@H]1O
test_result: 5.1 rpm
--
test_smiles: O=c1ccc2cc(O[C@@H]3O[C@H](CO)[C@@H](O)[C@H](O)[C@H]3O)c(O)cc2o1
test_result: 12.2 rpm
